- ASSAY_SYSTEM: B. anthracis Sap S-Layer assembly domain (Sap^AD; residues 216-814), C-terminal His6 (Bacillus anthracis, UniProt P49051 216-814)
- EXPERIMENT_DESCRIPTION: isothermal titration calorimetry, […]

>  <BINDER>
anti-Sap Nanobody683 (VHH) VHH: QVQLVESGGGLVQAGGSLRLSCAASGSIFRINDMGWYRQAPGKQRELVAAITSGGSTNYADSVKGRFTISRDNAKKMVYLQMNSLKPEDTAVYYCHADFSTGWAPYDYWGQGTQVTVSS

>  <Kd (nM)>
35.8

$$$$
>  <BINDER>
anti-Sap Nanobody702 (VHH) VHH: QVQLVESGGGLVQAGGSLRLSCAASGSIFRVNDMGWYRQAPGKQRELVAIIITGGSTNYADSVKGRFTISRDNAKNTVYLQMNSLRPEDTAVYYCNADFGTGPGRYDYWGQGTQVTVSS

>  <Kd (nM)>
72.5

$$$$
>  <BINDER>
anti-Sap Nanobody707 (VHH) VHH: QVQLVESGGGLVQAGGSLRLSCAASGSIFRINAMGWYRQASGKQRELVAAITSGGNTNYADSVKGRFTISRDNAKNTVYLQMNSLKPEDTAVYYCNADFGTGGRPYDYWGQGTQVTVSS

>  <Kd (nM)>
103

$$$$
>  <BINDER>
anti-Sap Nanobody704 (VHH) VHH: QVQLVESGGGLVQPGGSLRLSCAASGFTFSNFAIAWVRQAPGKGLEWVSDINSGGTDTSYAAAVKGRFTISRDNAKNTLYLQMNNLKPEDTAVYYCAKSAQSYFHSTFDHRGQGTQVTVSS

>  <Kd (nM)>
183

$$$$
